Survival (%) values, listed per item
tested on: foreskin cells in which senescence was induced by doxorubicin; test: CellTiter-Glo cell viability of doxorubicin-induced senescent foreskin cells (Examples 1-2, 10, 11, 13; Tables 4, 63, 65); type: cell-based, human; conditions: […] test compound; doxorubicin-induced senescent foreskin cells; CellTiter-Glo; 0 μM = 100
# do not omit the unit; it follows the number

Example entries and their recorded answers appear below.
Molecule	Attribute Measured	Reported
Cc1nc(-c2nc(-c3ccc(OC(F)(F)F)cc3)no2)nn1Cc1cccc(N2CCC(S(C)(=O)=O)CC2)c1 [LX-3200]	Survival (%)	78.6%
CN(Cc1cnc2nc(N)nc(N)c2n1)c1ccc(C(=O)N[C@@H](CCC(=O)O)C(=O)O)cc1 [LX-2901, Methotrexate, reference compound]	Survival (%)	97.8%
Cc1onc(C(=O)N2CCN(C(c3ccc(Cl)cc3)c3ccc(OCc4cn(CCOCCOCCNc5cccc6c5C(=O)N(C5CCC(=O)NC5=O)C6=O)nn4)cc3)CC2)c1[N+](=O)[O-] (stereo not shown) [LX-435]	Survival (%)	5.9%
C[N+](C)(C)CCO.C[N+](C)(C)CCO.[SH-].[SH-].[S]=[Mo]=[S] [LX-2601]	Survival (%)	81.8%
C[Si](C)(Cc1ccc(F)cc1)CN1CCCCC1.Cl [LX-1407, Silperisone, reference compound]	Survival (%)	95.9%

Qu. # returns recorded Survival (%) (system: foreskin cells in which senescence was induced by doxorubicin) for Cc1onc(C(=O)N2CCN(C(c3ccc(Cl)cc3)c3ccc(OCc4cn(CCOCCOCCNc5cccc6c5C(=O)N(C5CCC(=O)NC5=O)C6=O)nn4)cc3)CC2)c1[N+](=O)[O-] (stereo not shown) [LX-432]
Ans. 23.8%

Qu. For foreskin cells in which senescence was induced by doxorubicin, provide Survival (%) of C[Se](=O)O [LX-3105, Methylseleninic acid] please.
Ans. 59.5%
